PROTOCOL_TEXT: soluble on expression in E. coli; label from the status in PepcDB or PDB records
QUANTITY_MEASURED: soluble on expression in E. coli

>  <SEQUENCE_STRING>
AIAWNKKNEEKEDFGIIVILWKQVTVKEDGKVPLEPFLTAAKEVLRVVDAFGSGFRIVKNDIAGNIKKLYRANQTVHAETLQELIIAENSPDGLATVALLWLKRAFQFIASFLRRLVVTDKSLEQCVTEAYNCTLRPCHSAVIQKVFWGGVKLAPSRERFYRKLHPDLNIAKAKIEEFLIELHDPLCCIVQFFFQRELEDQCWGDEVYQRKDSSEWLKVSCEQDSV

>  <soluble on expression in E. coli>
soluble

$$$$
>  <SEQUENCE_STRING>
MGSDKIHHHHHHMKLIESVPNFSEGRRKEVVEKIVAEAKKYDRVWVLDWSMDADHNRSVITLVGEPENLINALFDMTKKAAELIDLRNHTGQHPRMGAADVIPLVPLYNTTMEECVEYSKILGRRIGEELGIPVYLYEKSATRPERQNLADIRKGEFEGFFEKIKDPLWKPDFGPDRVHPTAGVTAVGAREFLIAFNVNLGTRDVKIAEKIARAIRFSSGGLRYVKAIGVDLKGRGVVQVSINITNHKKTPLYRVFELIKMEAERYGVPVLGSEIVGLFPLESLLKTVSYYLRTDLNAKKVIESNLLEILVRESEK

>  <soluble on expression in E. coli>
not soluble

$$$$
>  <SEQUENCE_STRING>
MTGSQEDQPKIIIDQEQPKTLETEHQPEPSSSSPDQKKWGTHVMGAPAAPVAHPDNQQAAAWVAGDNQQTQYQPYVIYSPVEHPTTNNPLEPVIGMFHTWSRKAETVARNLWHNLKTGPSMSETAWGKVNLTAKAITKGGFESLFRQIFGTEPNETLKKTFACYLSTTTGPVAGTVYLSNARVAFCSDRPLYFTAPSGQESWSYYRVVVPLANVATVNPVVVKETPPEKYIQLTTVDGHDFWFMGFVNYEKATHHLLTSVSDFQTAHGSVSG

>  <soluble on expression in E. coli>
soluble

$$$$
>  <SEQUENCE_STRING>
SLKIFTSKKGQLSQLKQQKFKLEKDIQRLFEENLTLLSGYIFIRSEFSIKNSRIDTLAFDPETQAFVIIEYKRQQNSSVVDQGISYLNLMLEYKADFIVEYNEKQKVPLKRNDVDWSQSKVIFVSPAFNDFQIQATNFKDLPIELWEVNRFDNDIITLNIINKSKSAPNIKAVSNEKREEFSILKEIKVYQESDHLADKTDFIQELYEDFKQGILNLDPDIEINTRKLYIAFKKDRNIADIRIQQKNLKIWINLPYGELDDPKNLAKNVSNTGHWGNGDYEITIESTQYLEYIMSLIKQAIKD

>  <soluble on expression in E. coli>
soluble

$$$$

Lookup: Answer with the recorded soluble on expression in E. coli for the sequence listed here: MVNAEEQQYLNLVQYIINHGEDRPDRTGTGTLSVFAPSPLKFSLRNKTFPLLTTKRVFIRGVIEELLWFIRGETDSLKLREKNIHIWDANGSREYLDSIGLTKRQEGDLGPIYGFQWRHFGAEYIDCKTNYIGQGVDQLANIIQKIRTSPYDRRLILSAWNPADLEKMALPPCHMFCQFYVHIPSNNHRPELSCQLYQRSCDMGLGVPFNIASYALLTCMIAHVCDLDPGDFIHVMGDCHIYKDHIEALQQQLTRSPRPFPTLSLNRSITDIEDFTLDDFNIQNYHPYETIKMKMSI
Found: soluble

Lookup: Answer with the recorded soluble on expression in E. coli for the sequence listed here: QMEEGFVCFKLLYDVKKNRISIDDAVAENGVLPLMKHISWQFDKLPHMLIAGGTGGGKTYFMLTIIKACVGLGADVRILDPKNADLADLEEVLPKKVYSQKNGILMCLRKSVDGMMERMDEMKQMSNYKTGENYAYLGLKPVFIFFDEYVAFMDLLDMKERNEALSYMKQLVMLGRQAGYFLVLGAQRPDA
Found: not soluble
